test system: nNHDF cells; assay: Annexin V/Propidiumiodide apoptosis/necrosis assay, flow cytometry; type: cell-based, human
READOUT_KIND: quadrant number upper left, PI / Annexin V plot
Give bare numbers.

Field: example entries. Status: answers known.
>>> value_observed("O=C1C=C(O)C(=O)c2ccccc21 [HNQ, 2-hydroxy-1,4-naphtoquinone]")
3.31
>>> value_observed("CCCOC(=O)c1ccc(O)cc1")
2.46
>>> value_observed("CCOC(=O)c1ccc(O)cc1")
1.97

// for each compound below, give its quadrant number upper left, PI / Annexin V plot
1. CCCCOC(=O)c1ccc(O)cc1
2. COC(=O)c1ccc(O)cc1

Response:
1: 2.57; 2: 2.69
